- experimental system: Caspase-3 (Homo sapiens);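 further: Dose-response selectivity test against caspase-3 for candidate inhibitors of sentrin-specific proteases (SENPs)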
- Sequence (P42574 29-175 limits assumed): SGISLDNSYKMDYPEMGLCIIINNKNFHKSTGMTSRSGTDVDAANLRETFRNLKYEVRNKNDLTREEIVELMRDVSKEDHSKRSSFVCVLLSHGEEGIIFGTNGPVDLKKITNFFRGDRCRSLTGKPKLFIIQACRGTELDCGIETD
- Sequence (P42574 176-277 limits assumed): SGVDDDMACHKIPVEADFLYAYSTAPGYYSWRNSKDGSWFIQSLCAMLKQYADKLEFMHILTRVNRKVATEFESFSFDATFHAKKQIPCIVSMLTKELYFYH
- Type: functional
Activity calls are given as the source filed them.
Possible outcomes: y (active), n (inactive)

[
  {
    "entry smiles": "CCCCNc1cc(NC(C)=O)cc2cc(OC)c(OC)cc12",
    "experimental system": "Caspase-3 (Homo sapiens)",
    "class assignment": "y"
  },
  {
    "entry smiles": "Cc1cccc(OCc2cc(-c3ccccc3)no2)c1C",
    "experimental system": "Caspase-3 (Homo sapiens)",
    "class assignment": "y"
  },
  {
    "entry smiles": "O=C1c2ccccc2-c2nnc(-c3ccc(F)cc3)cc21",
    "experimental system": "Caspase-3 (Homo sapiens)",
    "class assignment": "y"
  },
  {
    "entry smiles": "Cc1ccccc1-c1nnc(-c2ccccc2C)o1",
    "experimental system": "Caspase-3 (Homo sapiens)",
    "class assignment": "y"
  },
  {
    "entry smiles": "NS(=O)(=O)c1ccc(NC(=O)COC(=O)c2ccc([N+](=O)[O-])s2)cc1",
    "experimental system": "Caspase-3 (Homo sapiens)",
    "class assignment": "y"
  },
  {
    "entry smiles": "Cc1cccnc1Nc1nc(-c2ccc(O)cc2O)cs1",
    "experimental system": "Caspase-3 (Homo sapiens)",
    "class assignment": "y"
  },
  {
    "entry smiles": "CC(C)(C)c1ccc2c(c1)C(=O)c1ccccc1C2=O",
    "experimental system": "Caspase-3 (Homo sapiens)",
    "class assignment": "n"
  },
  {
    "entry smiles": "O=C(COc1ccc(Cc2ccccc2)cc1)c1ccc(F)cc1",
    "experimental system": "Caspase-3 (Homo sapiens)",
    "class assignment": "y"
  },
  {
    "entry smiles": "O=C(Cn1cc(SCc2ccc(Cl)cc2)c2ccccc21)N1CCOCC1",
    "experimental system": "Caspase-3 (Homo sapiens)",
    "class assignment": "y"
  }
]
